- System: MMC1 (DNA, aptamer) CTTACGACCAGGGTTGGTTTCATCGGTGGTGTAATATGGTCGTAAG
- method summary: ITC
- condition info: 20 mM Na+, 0.5 mM Mg2+
measured parameter: Kd (µM)

# compound, unit of measure, Kd
measured = [
    ("CNC(C)C(=O)c1ccc2c(c1)OCO2 (racemic)", "µM", 275),
]

1. CNC(C)C(=O)c1ccccc1 (racemic)
2. CCNC(C)C(=O)c1ccc2c(c1)OCO2 (racemic)
// compare: 1 vs 2 , metric Kd, want the smaller // respond with label for picked entry
2

---

- Test system: ATP-33 (DNA, aptamer) CGCACCTGGGGGAGTATTGCGGAGGAAGGTGCG
- method summary: T5 Exo digestion, PAGE
- condition info: 10 mM Mg2+; 10 mM Tris-HCl pH 7.4, 25 °C; 250 μM ligand
measured parameter: binding

# smi, system under test, measured parameter, measured value
rows = [
    ("O=c1ccn([C@@H]2O[C@H](COP(=O)(O)OP(=O)(O)OP(=O)(O)O)[C@@H](O)[C@H]2O)c(=O)[nH]1", "ATP-33 (DNA, aptamer) CGCACCTGGGGGAGTATTGCGGAGGAAGGTGCG", "binding", "no"),
    ("Nc1ncnc2c1ncn2[C@@H]1O[C@H](COP(=O)(O)OP(=O)(O)OP(=O)(O)O)[C@@H](O)[C@H]1O", "ATP-33 (DNA, aptamer) CGCACCTGGGGGAGTATTGCGGAGGAAGGTGCG", "binding", "yes"),
    ("Nc1nc2c(ncn2[C@@H]2O[C@H](COP(=O)(O)OP(=O)(O)OP(=O)(O)O)[C@@H](O)[C@H]2O)c(=O)[nH]1", "ATP-33 (DNA, aptamer) CGCACCTGGGGGAGTATTGCGGAGGAAGGTGCG", "binding", "no"),
    ("Nc1ccn([C@@H]2O[C@H](COP(=O)(O)OP(=O)(O)OP(=O)(O)O)[C@@H](O)[C@H]2O)c(=O)n1", "ATP-33 (DNA, aptamer) CGCACCTGGGGGAGTATTGCGGAGGAAGGTGCG", "binding", "no"),
]

---

- System: MA-46 (MA) (DNA, aptamer) CTTACGACTCAGGCATTTTGCCGGGTAACGAAGTTACTGTCGTAAG
- method summary: ITC
- condition info: 20 mM Na+, 5 mM Mg2+; 10 mM Tris-HCl pH 7.4, 23 °C; one-site model
measured parameter: Kd (µM)

# compound, Kd, µM
rows = [
    ("CCNC(C)C(=O)c1ccc2c(c1)OCO2 (racemic)", 61),
]

1. CNC(C)Cc1ccc2c(c1)OCO2 (centres unmarked)
2. NCCc1c[nH]c2ccc(O)cc12
Which gives the smaller Kd number: 1 or 2 ? Indicate your choice by writing its label.
2
(2: 55 µM, 1: 103 µM)

P. CCCC(C(=O)c1ccc2c(c1)OCO2)N1CCCC1 (racemic)
Q. CN(C)CCCN1c2ccccc2Sc2ccc(Cl)cc21
Select the item whose Kd value is smaller, choosing between P and Q . Indicate your choice by writing its label.
Q
(Q: 0.6 µM, P: 18.8 µM)
